species on record: Rattus norvegicus; assay: DrugMatrix - Regimen: Daily Repeat; assay type: toxicity, organism-based, Sprague-Dawley; parameters: regimen Daily Repeat, gender Male, age 6-8 weeks; details: in vivo, po, 0 mg/kg, 120 h, tissue Blood, route oral GAVAGE, dose level Control, time 5 day, […]
Listing of entries alongside the reported ABSOLUTE MONOCYTE.
A complete answer gives the number and then names the unit.

Oc1c(Cl)cc(Cl)cc1Sc1cc(Cl)cc(Cl)c1O :: 72.5 CELLS/uL
CN(C)CCCC1(c2ccc(F)cc2)OCc2cc(C#N)ccc21 (stereo not given) :: 341.33 CELLS/uL

Briefly, ABSOLUTE MONOCYTE measured for CCCCCCCCCc1ccc(O)cc1 : 117 CELLS/uL

Briefly, ABSOLUTE MONOCYTE measured for COC1=CC(=O)C[C@@H](C)[C@]12Oc1c(Cl)c(OC)cc(OC)c1C2=O : 172.5 CELLS/uL

Briefly, ABSOLUTE MONOCYTE measured for COc1ccc2c(c1)c(CC(=O)OCC(=O)O)c(C)n2C(=O)c1ccc(Cl)cc1 : 238.5 CELLS/uL

====

species on record: Rattus norvegicus; test: DrugMatrix - Regimen: Daily Repeat; type: toxicity, organism-based, Sprague-Dawley; set-up: regimen Daily Repeat, gender Male, age 6-8 weeks; details: in vivo, iv, 0 mg/kg, 120 h, tissue Blood, dose level Control, time 5 day, vehicle 100 % SALINE
observable: MEAN CORPUSCULAR HEMOGLOBIN CONCENTRATION
A complete answer gives the number and then names the unit.

Field: example entries. Status: answers known.
NCC[C@H](O)C(=O)N[C@@H]1C[C@H](N)[C@@H](O[C@H]2O[C@H](CN)[C@@H](O)[C@H](O)[C@H]2O)[C@H](O)[C@H]1O[C@H]1O[C@H](CO)[C@@H](O)[C@H](N)[C@H]1O :: 38.7 G/DL
CC1(C)S[C@@H]2[C@H](NC(=O)[C@H](NC(=O)N3CCNC3=O)c3ccccc3)C(=O)N2[C@H]1C(=O)O :: 39.3 G/DL
CN(N=O)C(=O)N[C@@H](C=O)[C@@H](O)[C@H](O)[C@H](O)CO :: 37.1 G/DL

Briefly, MEAN CORPUSCULAR HEMOGLOBIN CONCENTRATION measured for CC[C@@]1(O)C(=O)OCc2c1cc1n(c2=O)Cc2cc3ccccc3nc2-1 : 38.5 G/DL

====

organism: Rattus norvegicus; assay: DrugMatrix - Regimen: Daily Repeat; type: toxicity, organism-based, Sprague-Dawley; parameters: regimen Daily Repeat, gender Male, age 6-8 weeks; conditions: in vivo, po, 0 mg/kg, 120 h, tissue Plasma, route oral GAVAGE, dose level Control, time 5 day, […]
observable: GLUCOSE (mg/dL)
Note: unit mg/dL is implicit; provide only the numeric part.

Field: example entries. Status: answers known.
CN(C)CCCC1(c2ccc(F)cc2)OCc2cc(C#N)ccc21 (centres undefined) :: 182.83
CCCC[C@@H](CC)COC(=O)c1ccccc1C(=O)OC[C@@H](CC)CCCC [BIS(2-ETHYLHEXYL)PHTHALATE] :: 157.5
Oc1c(Cl)cc(Cl)cc1Sc1cc(Cl)cc(Cl)c1O :: 142
CC(C)n1c(/C=C/C(O)CC(O)CC(=O)O)c(-c2ccc(F)cc2)c2ccccc21 (centres undefined) :: 142
c1ccc2[nH]c(-c3cscn3)nc2c1 :: 157.5

Briefly, GLUCOSE measured for CC1=C(/C=C/C(C)=C/C=C/C(C)=C\C(=O)O)C(C)(C)CCC1 : 163

Briefly, GLUCOSE measured for CC(C)(Oc1ccc(CCNC(=O)c2ccc(Cl)cc2)cc1)C(=O)O [BEZAFIBRATE] : 125.6

Briefly, GLUCOSE measured for CSc1ccc2c(c1)N(CCC1CCCCN1C)c1ccccc1S2 (centres undefined) : 173.5

Briefly, GLUCOSE measured for COCc1c(C(C)C)nc(C(C)C)c(/C=C/[C@@H](O)C[C@@H](O)CC(=O)O)c1-c1ccc(F)cc1 : 184.17

====

species on record: Rattus norvegicus; assay: DrugMatrix - Regimen: Daily Repeat; type: toxicity, organism-based, Sprague-Dawley; parameters: regimen Daily Repeat, gender Male, age 6-8 weeks; details: in vivo, po, 1500 mg/kg, 72 h, tissue Plasma, route oral GAVAGE, dose level High, time 3 day, vehicle .5 % CMC
Listing of entries alongside the reported BLOOD UREA NITROGEN.

COC(=O)c1ccc(O)cc1 :: 18 mg/dL
O=C1CCc2cc(OCCCCc3nnnn3C3CCCCC3)ccc2N1 :: 12 mg/dL
CCOC(=O)[C@H](CCc1ccccc1)N[C@@H](C)C(=O)N1[C@H](C(=O)O)C[C@@H]2CCC[C@@H]21 :: 30.67 mg/dL

Now for another entry.
Briefly, BLOOD UREA NITROGEN measured for NS(=O)(=O)c1cc2c(cc1Cl)NCNS2(=O)=O [HYDROCHLOROTHIAZIDE] : 19 mg/dL

====

species on record: Rattus norvegicus; experiment: DrugMatrix - Regimen: Daily Repeat; format: toxicity, organism-based, Sprague-Dawley; parameters: regimen Daily Repeat, gender Male, age 6-8 weeks; conditions: in vivo, po, 0 mg/kg, 72 h, tissue Plasma, route oral GAVAGE, dose level Control, time 3 day, […]
Listing of entries alongside the reported SODIUM.
Note: unit MEQ/L is implicit; provide only the numeric part.

Field: example entries. Status: answers known.
COCc1c(C(C)C)nc(C(C)C)c(/C=C/[C@@H](O)C[C@@H](O)CC(=O)O)c1-c1ccc(F)cc1 :: 143.3
CCCC[C@@H](CC)COC(=O)c1ccccc1C(=O)OC[C@@H](CC)CCCC [BIS(2-ETHYLHEXYL)PHTHALATE] :: 137.67
CC(=O)[C@H]1CC[C@H]2[C@@H]3CCC4=CC(=O)CC[C@]4(C)[C@H]3CC[C@]12C :: 142.48
COc1ccc2c(c1)c(CC(=O)OCC(=O)O)c(C)n2C(=O)c1ccc(Cl)cc1 :: 143.4
CCCCCCCCCc1ccc(O)cc1 :: 143.3
CC(C)n1c(/C=C/C(O)CC(O)CC(=O)O)c(-c2ccc(F)cc2)c2ccccc21 (stereo not drawn) :: 143.02
CC(C)(Oc1ccc(CCNC(=O)c2ccc(Cl)cc2)cc1)C(=O)O [BEZAFIBRATE] :: 142.22

Briefly, SODIUM measured for CN(C)CCCC1(c2ccc(F)cc2)OCc2cc(C#N)ccc21 (stereo not drawn) : 142.48

====

organism: Rattus norvegicus; test: DrugMatrix - Regimen: Daily Repeat; type: toxicity, organism-based, Sprague-Dawley; design: regimen Daily Repeat, gender Male, age 6-8 weeks; conditions: in vivo, po, 0 mg/kg, […], tissue Blood, route oral GAVAGE, dose level Control, time 28 day, vehicle .5 % CMC
observable: ABSOLUTE EOSINOPHIL
A complete answer gives the number and then names the unit.

Briefly, ABSOLUTE EOSINOPHIL measured for O=c1cc(-c2ccccc2)oc2c1ccc1ccccc12 : 54 cells/µL

====

species on record: Rattus norvegicus; test: DrugMatrix - Regimen: Daily Repeat; assay type: toxicity, organism-based, Sprague-Dawley; parameters: regimen Daily Repeat, gender Male, age 6-8 weeks; details: in vivo, po, 40 mg/kg, […], tissue Blood, route oral GAVAGE, dose level Low, time 14 day
observable: ABSOLUTE BASOPHIL (cells/µL)
Note: unit cells/µL is implicit; provide only the numeric part.

Briefly, ABSOLUTE BASOPHIL measured for C=CCN : 50

====

Listing of entries alongside the reported BLOOD UREA NITROGEN.
organism: Rattus norvegicus; test: DrugMatrix - Regimen: Daily Repeat; format: toxicity, organism-based, Sprague-Dawley; set-up: regimen Daily Repeat, gender Male, age 6-8 weeks; details: in vivo, po, 0 mg/kg, 120 h, tissue Plasma, route oral GAVAGE, dose level Control, time 5 day, vehicle .5 % CMC
Note: unit mg/dL is implicit; provide only the numeric part.

COC(=O)c1ccc(O)cc1 :: 15.5
COc1c(C)c2c(c(O)c1C/C=C(\C)CCC(=O)OCCN1CCOCC1)C(=O)OC2 [MYCOPHENOLATE MOFETIL] :: 17
CCC[C@@H]1C[C@@H](C(=O)N[C@@H]([C@H]2O[C@H](SC)[C@H](O)[C@@H](O)[C@H]2O)[C@@H](C)O)N(C)C1 :: 16.67
CC[C@H]1OC(=O)[C@H](C)[C@@H](O[C@H]2C[C@@](C)(OC)[C@@H](O)[C@H](C)O2)[C@H](C)[C@@H](O[C@@H]2O[C@H](C)C[C@H](N(C)C)[C@H]2O)[C@](C)(O)C[C@@H](C)/C(=N\OCOCCOC)[C@H](C)[C@@H](O)[C@]1(C)O :: 16.67
CCc1cccc2c3c([nH]c12)C(CC)(CC(=O)O)OCC3 (configuration not stated) :: 16.67

Briefly, BLOOD UREA NITROGEN measured for O=c1cc(-c2ccccc2)oc2c1ccc1ccccc12 : 12

Briefly, BLOOD UREA NITROGEN measured for CN1C(C(=O)Nc2ccccn2)=C(O)c2ccccc2S1(=O)=O : 15.5

Origin of the recorded values: ChEMBL document CHEMBL3885881
